Tested on: primary human T-cells;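 further: cd3-stimulated proliferation read by CellTiter-Glo after 5 days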
Output schema: class label derived from EC50. Mapping: lo (below 800 nM), mid (800 nM to below 3000 nM), hi (3000 nM or more)

Below, 3 molecules whose answers are already recorded.
[
  {
    "molecule": "CN1CC(c2nc(-c3cc4c(cc3F)[S+]([O-])C[C@H](N)C(=O)N4Cc3ccc(Cl)cc3)no2)CC(F)(F)C1 (single isomer, unassigned; epimer a) [Example 342]",
    "group": "hi"
  },
  {
    "molecule": "CC(Nc1nnc(-c2cc3c(cc2F)S(=O)(=O)C[C@H](N)C(=O)N3Cc2ccc(Cl)cc2)o1)C1CC1(F)F (single isomer, unassigned) [Example 496]",
    "group": "hi"
  },
  {
    "molecule": "CC(C)(C)c1nnc(-c2cc3c(cc2F)S(=O)(=O)C[C@H](N)C(=O)N3Cc2ccc(Cl)cc2CN)o1 [Example 256]",
    "group": "hi"
  }
]

Lookup: Hey, which category is N[C@H]1CS(=O)(=O)c2cc(F)c(-c3nnc(N4CCC(F)(F)CC4)o3)cc2N(Cc2ccc(Cl)cc2)C1=O [Example 480] in, do you know?
Found: lo

Lookup: Hey, which category is CC(C)(C)Nc1nnc(-c2cc3c(cc2F)S(=O)(=O)C[C@H](N)C(=O)N3Cc2ccc(Cl)cc2)o1 [Example 488] in, do you know?
Found: lo

Lookup: Hey, which category is CN1CC[C@@H](n2nnc(-c3cc4c(cc3F)S(=O)(=O)C[C@H](N)C(=O)N4Cc3ccc(Cl)cc3)n2)C1 [Example 10] in, do you know?
Found: hi

Lookup: Hey, which category is CC(=O)N1CCC(C)(c2nnc(-c3cc4c(cc3F)S(=O)(=O)C[C@H](N)C(=O)N4Cc3ccc(Cl)cc3)o2)CC1 [Example 169] in, do you know?
Found: hi

Lookup: Hey, which category is COC1CCN(c2ccc(CN3C(=O)[C@@H](N)CS(=O)(=O)c4ccc(-c5nnc(C(C)(C)C)o5)cc43)cc2)CC1 [Example 447] in, do you know?
Found: mid

Lookup: Hey, which category is N[C@H]1C[S+]([O-])c2cc(F)c(-c3noc(N4CCOC5CC54)n3)cc2N(Cc2ccc(Cl)cc2)C1=O (single isomer, unassigned; epimer b) [Example 208] in, do you know?
Found: hi
